readout.name: melting point

Worked set:
- smiles: "COc1cccc(-c2ccc3c(c2)NC(=O)OC3(C)C)c1"
  val: "167 to 168 °C"
- smiles: "CCCn1cc(Cc2ccc(C(=O)NS(=O)(=O)c3ccccc3C)cc2OC)c2cc(CCNC(=O)N(C)C)ccc21"
  val: "115 to 121 °C"
- smiles: "Cc1occc1C(=O)N(O)C1CCCCC1"
  val: "108 to 110 °C"

The record that follows has no melting point shown yet.
State the recorded melting point for this entry: `CSC(=NCCSCc1cc2ccc(CN(C)C)cc2o1)NC#N`
98 to 100 °C

---

Consider the following compounds and their measured melting point readings.

Worked set:
- compound: "CC1(C)NCCc2ccccc2C1c1ccccc1 (stereo not drawn)"
  melting point: "99 to 100 °C"
- compound: "CCCCc1oc2ccccc2c1-c1ncc(-c2ccc3cc(OCc4ccc(C(=O)OC)cc4C(=O)OC)ccc3c2)o1"
  melting point: "195 to 197 °C"
- compound: "CC(=O)OCCOCn1ccc2c(Cl)ncnc21"
  melting point: "67 to 88 °C"
- compound: "CS(=O)(=O)Nc1ccc2c(c1)CC(=O)N2CCN1CCN(Cc2ccccc2)CC1"
  melting point: "196 to 198 °C"
- compound: "COc1ccc2c(c1)CCC(CN1CCC3(CC1)C(=O)NCN3c1ccccc1)C2=O (stereo not drawn)"
  melting point: "177 to 179 °C"
- compound: "Cc1cc(C)c(S(=O)(=O)NCCS)c(C)c1"
  melting point: "73 °C"
- compound: "C(=Cc1ccc(C=Cc2ccccc2)c2ccccc12)c1ccccc1"
  melting point: "189 °C"
- compound: "c1ccc(-c2ccc(CCNc3ccncc3)cc2)cc1"
  melting point: "140 °C"

State the recorded melting point for this entry: `O=C1NC(=O)c2c1c(-c1ccccc1Cl)cc1c2c(Cl)c(CO)n1CCCO`
218 to 219 °C

State the recorded melting point for this entry: `CN1CCN(c2nc(N)c3cc(Cl)ccc3n2)CC1`
176 to 178 °C

State the recorded melting point for this entry: CCOC(=O)N1C(=O)NC(C)=C(C(=O)OC)C1c1cccc(Cl)c1Cl (stereo not drawn)
159 to 160 °C

State the recorded melting point for this entry: O=C1c2cccc(NC(=S)Nc3cnccn3)c2C2CC3(CCN12)SCCS3 (stereo not drawn)
128 °C

State the recorded melting point for this entry: `COc1ccc(S(=O)(=O)c2c(-c3ccccc3)oc3ccccc23)cc1`
146 to 148 °C
